system-name: (human) A2A adenosine receptors (Homo sapiens)
Construct: purchased PerkinElmer Research Products (Boston, Mass.); host or cells: HEK-293
procedure-summary: Radioligand binding test ([3H]CGS21680 displacement, hA2A HEK-293 cell membranes)
run-conditions: read-out: Ki (inhibition constant)
measured-property: pKi
pKi (log units): -log10 of the concentration in mol/L.

What measured pKi goes with N#Cc1ccc(/C=N/Nc2nc(N)c3ncn([C@@H]4O[C@H](CO)C(O)C4O)c3n2)cc1 (stereo partly drawn) [Compound 20] ?
8.07

Repeat for the following compound: CCN(CC)c1ccc(/C=N/Nc2nc(N)c3ncn([C@@H]4O[C@H](CO)[C@@H](O)[C@H]4O)c3n2)cc1 [Compound 15]
8.19

Repeat for the following compound: CCCOc1ccc(/C=N/Nc2nc(N)c3ncn([C@@H]4O[C@H](CO)C(O)C4O)c3n2)cc1 (stereo partly drawn) [Compound 13]
6.65

###

Criterion: melting point strictly under 200 °C. Met: T. Not met: F.

Report whether reported melting point is lower than 200 °C (strictly) for Nc1nc(N/N=C/c2ccc(OCc3ccccc3)c(OCc3ccccc3)c2)nc2c1ncn2[C@@H]1O[C@H](CO)[C@@H](O)[C@H]1O
F

Repeat for the following molecule: CCN(CC)c1ccc(/C=N/Nc2nc(N)c3ncn([C@@H]4O[C@H](CO)[C@@H](O)[C@H]4O)c3n2)cc1
T

Repeat for the following molecule: Nc1nc(N/N=C/c2ccc(C(F)(F)F)cc2C(F)(F)F)nc2c1ncn2[C@@H]1O[C@H](CO)[C@@H](O)[C@H]1O
F

Repeat for the following molecule: COc1cc(/C=N/Nc2nc(N)c3ncn([C@@H]4O[C@H](CO)[C@@H](O)[C@H]4O)c3n2)cc(OC)c1OC
F

Repeat for the following molecule: Nc1nc(N/N=C/c2ccc(N3CCCC3)cc2)nc2c1ncn2[C@@H]1O[C@H](CO)[C@@H](O)[C@H]1O
T

Repeat for the following molecule: Nc1nc(N/N=C/c2ccc(Cl)c(C(F)(F)F)c2)nc2c1ncn2[C@@H]1O[C@H](CO)[C@@H](O)[C@H]1O
F

###

system-name: (human) A2A adenosine receptors (Homo sapiens, UniProt P29274)
Construct: purchased PerkinElmer Research Products (Boston, Mass.); host or cells: HEK-293
Sequence (P29274 whole entry): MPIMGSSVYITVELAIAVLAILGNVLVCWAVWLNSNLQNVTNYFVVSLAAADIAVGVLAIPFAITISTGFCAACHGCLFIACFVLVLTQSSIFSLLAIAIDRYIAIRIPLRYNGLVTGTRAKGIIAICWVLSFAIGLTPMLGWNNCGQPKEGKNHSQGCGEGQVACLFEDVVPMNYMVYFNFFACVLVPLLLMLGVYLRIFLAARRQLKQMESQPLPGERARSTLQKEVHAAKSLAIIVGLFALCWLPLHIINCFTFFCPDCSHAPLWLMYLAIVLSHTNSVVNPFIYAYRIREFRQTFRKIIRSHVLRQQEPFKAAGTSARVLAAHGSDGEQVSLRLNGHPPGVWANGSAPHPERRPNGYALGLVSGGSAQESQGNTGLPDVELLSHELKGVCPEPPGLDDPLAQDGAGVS
procedure-summary: Radioligand binding test ([3H]CGS21680 displacement, hA2A HEK-293 cell membranes)
run-conditions: calculated from IC50 by Cheng and Prusoff equation, [S] 25 nM, Km […] nM; read-out: Ki (inhibition constant)
measured-property: Ki (nM)
The figure you give is taken to be in nM; do not add the unit.

Some entries whose results are on file:
{"compound": "Nc1nc(N/N=C/c2ccc(-c3ccccn3)cc2)nc2c1ncn2[C@@H]1O[C@H](CO)[C@@H](O)[C@H]1O [Compound 8]", "Ki [nM]": 208}
{"compound": "Nc1nc(N/N=C/c2ccc(OCc3ccccc3)c(OCc3ccccc3)c2)nc2c1ncn2[C@@H]1O[C@H](CO)[C@@H](O)[C@H]1O [Compound 2]", "Ki [nM]": 1.8}
{"compound": "Nc1nc(N/N=C/c2ccc(N3CCOCC3)cc2)nc2c1ncn2[C@@H]1O[C@H](CO)[C@@H](O)[C@H]1O [Compound 17]", "Ki [nM]": 800}

Consider the additional compound presented here.
Param readout= Ki; system= (human) A2A adenosine receptors (Homo sapiens, UniProt P29274); entry= Nc1nc(N/N=C/c2ccc(C(F)(F)F)cc2)nc2c1ncn2[C@@H]1O[C@H](CO)[C@@H](O)[C@H]1O [Compound 11] ; returns value.
61.3
